Tested on: P388 leukemia ip, CD2F1 mice, survival T/C
Experiment: NCI In Vivo Anticancer Drug Screen. Data for tumor model P388 Leukemia (intraperitoneal) in CD2F1 (CDF1) mice
Settings: endpoint: median survival time; dose: 400.0 mg/kg/injection; schedule: Q01DX001 (ip); vehicle: Klucel (hydroxypropylcellulose) (HPC); higher = longer survival
Inconclusive results and toxic doses are left out.
Entries and their T/C values follow.

Measured T/C, O=c1c(N=Nc2ccccc2Cl)c(O)n(-c2ccccc2Cl)c(=S)n1-c1ccc(Cl)cc1 : 96 % of control

Measured T/C, CC(=O)NCC1(C)CCCC2(C)C3=CC(=O)C(C(C)C)=CC3(O)CCC12 (stereo not drawn) : 94 % of control

----------
Tested on: P388 leukemia ip, CD2F1 mice, survival T/C
Experiment: NCI In Vivo Anticancer Drug Screen. Data for tumor model P388 Leukemia (intraperitoneal) in CD2F1 (CDF1) mice
Conditions: endpoint: median survival time; dose: 50.0 mg/kg/injection; schedule: Q01DX009 (ip); vehicle: saline with Tween-80; higher = longer survival
Inconclusive results and toxic doses are left out.
Entries and their T/C values follow.

Worked cases, T/C given:
>>> measurement("Cc1ccc(N=C(N)NC#N)cc1")
"100 % of control"
>>> measurement("Cc1[nH]c2ccc(N(C)C)cc2c(=O)c1CN1CCN(C)CC1")
"111 % of control"
>>> measurement("CC(C)CC(NC(=O)CN)C(=O)O (configuration not stated)")
"89 % of control"
>>> measurement("CCOC(=O)c1ccc(NC(=O)CS)cc1")
"99 % of control"
>>> measurement("CC(C)(CCl)C(=O)NN=C(c1ccccc1)c1ccccc1")
"107 % of control"

Measured T/C, Clc1ccc2[nH]c3nc4ccccc4nc3c2c1 : 105 % of control

Measured T/C, Nc1nc2nc(CBr)c(CBr)nc2c(=O)[nH]1 : 118 % of control

----------
System: P388 leukemia ip, CD2F1 mice, survival T/C
Assay: NCI In Vivo Anticancer Drug Screen. Data for tumor model P388 Leukemia (intraperitoneal) in CD2F1 (CDF1) mice
Settings: endpoint: median survival time; dose: 50.0 mg/kg/injection; schedule: Q01DX009 (ip); vehicle: saline; higher = longer survival
Procedure: The antitumor activity of compounds was measured in mice bearing transplantable tumors. Survival or tumor size were measured and the results are expressed as the measurement made in the treated group (T) divided by the measurement made in the vehicle treated control group (C). The tumor model used in this assay is P388 Leukemia (intraperitoneal) in CD2F1 (CDF1) mice
Inconclusive results and toxic doses are left out. Square brackets hold non-standard residues; d marks the D form. Peptide text beside a SMILES is read from it. ξ: configuration not given here. ξhCys = NC(CCS)C(=O)O
Entries and their T/C values follow.

>>> measurement("CCSCCC(NC(=O)CN)C(=O)O (stereo not given) (H-Gly-[ξhCys](Et)-OH)")
"112 % of control"
>>> measurement("CNC(=O)N(Cl)c1ccc(Cl)cc1")
"98 % of control"
>>> measurement("ON(C=Nc1ccccc1)c1ccccc1")
"101 % of control"

Measured T/C, O=C(C[n+]1ccc2ccccc2c1)c1ccccc1 : 110 % of control

Measured T/C, O=C1CNC(=O)CN1 : 96 % of control

Measured T/C, O=C(CSc1nc(-c2ccccc2)c(-c2ccccc2)o1)N1CCCCC1 : 93 % of control
